Reference source for all entries: patent US20200055939A1

Reported pKd values for a set of binders
- target-under-test: T1, huMICA*004 alpha 3-his (human)
- T1 construct: whole construct entry: GS, alpha 3 domain, GNS, His8; also called MICA004.His; MICA*004 alpha3 construct
- T1 chain: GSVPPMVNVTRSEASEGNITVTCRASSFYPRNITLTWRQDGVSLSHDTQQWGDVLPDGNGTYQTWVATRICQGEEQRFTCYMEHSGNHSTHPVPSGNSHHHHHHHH
- method-summary: SPR, Biacore 8K, antibody on Protein A chip
Entry type: numeric. Quantity: pKd, the -log10 of concentration in molar units.

A selection of reference data follows.
binder	pKd
1D5v3 (antibody, IgG1, V domains shown, humanized variant of 1D5) VH: EIQLVQSGAEVKKPGASVKVSCKASGYAFTSQNIYWVRQAPGQGLEWIGYIEPYNVVPMYNPKFKGRATLTVDKSTSTAYLELSSLRSEDTAVYYCARSGSSNFDYWGQGTLVTVSS VL: EIVLTQSPDFQSVTPKEKVTITCSASSSISSHYLHWYQQKPDQSPKLLIYRTSNLASGVPSRFSGSGSGTDYTLTINSLEAEDAATYYCQQGSSLPLTFGQGTKVEIK	9.02
13A9v6 (antibody, IgG1, V domains shown, humanized variant of 13A9) VH: EVQLVQSGAEVKKPGSSVKVSCKASGYAFTNYLIEWVRQAPGQGLEWIGAINPGSGATNYNEKFKDRATLTADKSTNTAYMELSSLRSEDTAVYFCARFLGNYFDNWGQGTLVTVSS VL: DIQMTQSPSSLSASVGDRVTITCRASGNIHSYLAWYQQKPGKSPKLLVYYAETLADGVPSRFSGSGSGTDYTLTISSLQPEDFATYFCQQFWTTPYTFGQGTKVEIK	8.42
6E1.1.12 (antibody, V domains shown, mouse variable domains) VH: QGQMQQSGAELVKPGASVKLSCKTSGFTFSDNYISWLKQKPGQSLEWIAWIYAGTGGSSYNQKFRDKAQLTVDTSSRTAYMQLSSLTTEDSAIYYCARHDYYGTSGAWFAYWGRGTLVTVSA VL: DVLMTQTPLSLPVSLGDQASISCRSSQHIVHSNENTYLEWYLQKPGQSPKLLIYKVSNRFSGVPDRFSGSGSGTDFTLKISRVEAEDLGVYYCFQGSHVPWTFGGGTKVEIK	8.40
1D5v13 (antibody, IgG1, V domains shown, humanized variant of 1D5) VH: EIQLVQSGAEVKKPGASVKVSCKASGYAFTSQNIYWVRQAPGQGLEWIGYIEPYNVVPMYNPKFKGRATLTVDKSTSTAYMELRSLRSDDTAVYYCARSGSSNFDYWGQGTLVTVSS VL: DIQMTQSPSSLSASVGDRVTITCSASSSISSHYLHWYQQKPGKAPKLLIYRTSNLASGVPSRFSGSGSGTDFTLTISSLQPEDFATYYCQQGSSLPLTFGQGTKVEIK	9.04

As a next step, examine the binder that follows.
pKd measured on 1D5v7 (antibody, IgG1, V domains shown, humanized variant of 1D5) VH: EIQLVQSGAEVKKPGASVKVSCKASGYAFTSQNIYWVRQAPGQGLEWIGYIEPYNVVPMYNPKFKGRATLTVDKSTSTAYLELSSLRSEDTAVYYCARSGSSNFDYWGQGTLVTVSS VL: EIVLTQSPDFQSVTPKEKVTITCSASSSISSHYLHWYQQKPDQSPKLLIKRTSNLASGVPSRFSGSGSGTDFTLTINSLEAEDAATYYCQQGSSLPLTFGQGTKVEIK = 8.78
